The values you see were collected from PubChem BioAssay AID1963979.

Tested on: 361931-004-R-J1-PDC multicell spheroid viability;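 further: spheroids exposed to agents for seven days before readout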
Assay: Anticancer human tumor 361931-004-R-J1-PDC patient-derived colon adenocarcinoma cell line growth inhibition [PI3K]
Conditions: second compound 1 µM; first compound 1 µM; hits give low values
From the text: Combinatorial screen of targeted agents with the PI3K inhibitors inavolisib, alpelisib, duvelisib, and copanlisib in multi-cell type tumor spheroids A high-throughput screen of multi-cell type tumor spheroids was designed to identify active combinations of targeted small molecules and PI3K pathway inhibitors. […] Compounds. […] If the clinical Cmax for an agent had not been determined, the highest concentration tested was 10 microM. […]
Below, each entry is listed with its recorded viability, T/C.
Parameter Measured: viability, T/C (%)

Compound	Tested On	Parameter Measured	Assay Value
C=CC(=O)N1CCN(c2nc(=O)n(-c3c(C)ccnc3C(C)C)c3nc(-c4c(O)cccc4F)c(F)cc23)C(C)C1 (configuration not stated) + COc1c(OCCCN2CCOCC2)ccc2c3n(c(=NC(=O)c4cnc(N)nc4)nc12)CCN3	361931-004-R-J1-PDC multicell spheroid viability	viability, T/C	20.2
CC(C)NCC(C(=O)N1CCN(c2ncnc3c2C(C)CC3O)CC1)c1ccc(Cl)cc1 (configuration not stated) + CC(Nc1ncnc2nc[nH]c12)c1cc2cccc(Cl)c2c(=O)n1-c1ccccc1	361931-004-R-J1-PDC multicell spheroid viability	viability, T/C	86.1
CCCS(=O)(=O)Nc1ccc(F)c(C(=O)c2c[nH]c3ncc(-c4ccc(Cl)cc4)cc23)c1F + COc1c(OCCCN2CCOCC2)ccc2c3n(c(=NC(=O)c4cnc(N)nc4)nc12)CCN3	361931-004-R-J1-PDC multicell spheroid viability	viability, T/C	9.73
CC1(C)CCC(Nc2ncc(C(F)(F)F)c(-c3c[nH]c4c(P(C)(C)=O)c(C#N)ccc34)n2)CN1 (configuration not stated) + CC(Nc1ncnc2nc[nH]c12)c1cc2cccc(Cl)c2c(=O)n1-c1ccccc1	361931-004-R-J1-PDC multicell spheroid viability	viability, T/C	98.4
CC1(C)CCC(CN2CCN(c3ccc(C(=O)NS(=O)(=O)c4ccc(NCC5CCOCC5)c([N+](=O)[O-])c4)c(Oc4cnc5[nH]ccc5c4)c3)CC2)=C(c2ccc(Cl)cc2)C1 + COc1c(OCCCN2CCOCC2)ccc2c3n(c(=NC(=O)c4cnc(N)nc4)nc12)CCN3	361931-004-R-J1-PDC multicell spheroid viability	viability, T/C	25.6
CNC(=O)c1ccc(N2C(=S)N(c3ccc(C#N)c(C(F)(F)F)c3)C(=O)C2(C)C)cc1F + CC(Nc1ncnc2nc[nH]c12)c1cc2cccc(Cl)c2c(=O)n1-c1ccccc1	361931-004-R-J1-PDC multicell spheroid viability	viability, T/C	104
C#Cc1c(F)ccc2cc(O)cc(-c3ncc4c(N5CC6CCC(C5)N6)nc(OCC56CCCN5CC(F)C6)nc4c3F)c12 (configuration not stated) + COc1c(OCCCN2CCOCC2)ccc2c3n(c(=NC(=O)c4cnc(N)nc4)nc12)CCN3	361931-004-R-J1-PDC multicell spheroid viability	viability, T/C	12.1
C[C@@H](NC(=O)c1ncnc(N)c1Cl)c1ncc(C(=O)Nc2cc(C(F)(F)F)c(Cl)cn2)s1 + Cc1nc(NC(=O)N2CCCC2C(N)=O)sc1-c1ccnc(C(C)(C)C(F)(F)F)c1	361931-004-R-J1-PDC multicell spheroid viability	viability, T/C	88.8
CCN1CCN(Cc2ccc(Nc3ncc(F)c(-c4cc(F)c5nc(C)n(C(C)C)c5c4)n3)nc2)CC1 + CC(Nc1ncnc2nc[nH]c12)c1cc2cccc(Cl)c2c(=O)n1-c1ccccc1	361931-004-R-J1-PDC multicell spheroid viability	viability, T/C	93
Cn1ncc(Cl)c1-c1cc(C(=O)NC(CN)Cc2cccc(F)c2)sc1Cl (configuration not stated) + CC(Nc1ccc2c(c1)OCCn1cc(N3C(=O)OCC3C(F)F)nc1-2)C(N)=O	361931-004-R-J1-PDC multicell spheroid viability	viability, T/C	45.1
C#Cc1c(F)ccc2cc(O)cc(-c3ncc4c(N5CC6CCC(C5)N6)nc(OCC56CCCN5CC(F)C6)nc4c3F)c12 (configuration not stated) + CC(Nc1ncnc2nc[nH]c12)c1cc2cccc(Cl)c2c(=O)n1-c1ccccc1	361931-004-R-J1-PDC multicell spheroid viability	viability, T/C	95.2
CCCS(=O)(=O)Nc1ccc(F)c(C(=O)c2c[nH]c3ncc(-c4ccc(Cl)cc4)cc23)c1F + CC(Nc1ccc2c(c1)OCCn1cc(N3C(=O)OCC3C(F)F)nc1-2)C(N)=O	361931-004-R-J1-PDC multicell spheroid viability	viability, T/C	50.3
CCCS(=O)(=O)Nc1ccc(F)c(C(=O)c2c[nH]c3ncc(-c4ccc(Cl)cc4)cc23)c1F + Cc1nc(NC(=O)N2CCCC2C(N)=O)sc1-c1ccnc(C(C)(C)C(F)(F)F)c1	361931-004-R-J1-PDC multicell spheroid viability	viability, T/C	73.3
Cn1ncc(Cl)c1-c1cc(C(=O)NC(CN)Cc2cccc(F)c2)sc1Cl (configuration not stated) + Cc1nc(NC(=O)N2CCCC2C(N)=O)sc1-c1ccnc(C(C)(C)C(F)(F)F)c1	361931-004-R-J1-PDC multicell spheroid viability	viability, T/C	39.1
CC1(C)CCC(CN2CCN(c3ccc(C(=O)NS(=O)(=O)c4ccc(NCC5CCOCC5)c([N+](=O)[O-])c4)c(Oc4cnc5[nH]ccc5c4)c3)CC2)=C(c2ccc(Cl)cc2)C1 + CC(Nc1ncnc2nc[nH]c12)c1cc2cccc(Cl)c2c(=O)n1-c1ccccc1	361931-004-R-J1-PDC multicell spheroid viability	viability, T/C	102
C=CC(=O)N1CCN(c2nc(=O)n(-c3c(C)ccnc3C(C)C)c3nc(-c4c(O)cccc4F)c(F)cc23)C(C)C1 (configuration not stated) + CC(Nc1ncnc2nc[nH]c12)c1cc2cccc(Cl)c2c(=O)n1-c1ccccc1	361931-004-R-J1-PDC multicell spheroid viability	viability, T/C	106
CCCS(=O)(=O)Nc1ccc(F)c(C(=O)c2c[nH]c3ncc(-c4ccc(Cl)cc4)cc23)c1F + CC(Nc1ncnc2nc[nH]c12)c1cc2cccc(Cl)c2c(=O)n1-c1ccccc1	361931-004-R-J1-PDC multicell spheroid viability	viability, T/C	96.8
CC1(C)CCC(Nc2ncc(C(F)(F)F)c(-c3c[nH]c4c(P(C)(C)=O)c(C#N)ccc34)n2)CN1 (configuration not stated) + Cc1nc(NC(=O)N2CCCC2C(N)=O)sc1-c1ccnc(C(C)(C)C(F)(F)F)c1	361931-004-R-J1-PDC multicell spheroid viability	viability, T/C	80.4
C#Cc1c(F)ccc2cc(O)cc(-c3ncc4c(N5CC6CCC(C5)N6)nc(OCC56CCCN5CC(F)C6)nc4c3F)c12 (configuration not stated) + CC(Nc1ccc2c(c1)OCCn1cc(N3C(=O)OCC3C(F)F)nc1-2)C(N)=O	361931-004-R-J1-PDC multicell spheroid viability	viability, T/C	53.4
CC1(C)CCC(CN2CCN(c3ccc(C(=O)NS(=O)(=O)c4ccc(NCC5CCOCC5)c([N+](=O)[O-])c4)c(Oc4cnc5[nH]ccc5c4)c3)CC2)=C(c2ccc(Cl)cc2)C1 + CC(Nc1ccc2c(c1)OCCn1cc(N3C(=O)OCC3C(F)F)nc1-2)C(N)=O	361931-004-R-J1-PDC multicell spheroid viability	viability, T/C	71.2
CC(Cn1ccc(-c2ccc(C#N)c(Cl)c2)n1)NC(=O)c1cc(C(C)O)[nH]n1 (configuration not stated) + CC(Nc1ccc2c(c1)OCCn1cc(N3C(=O)OCC3C(F)F)nc1-2)C(N)=O	361931-004-R-J1-PDC multicell spheroid viability	viability, T/C	85.8
CCN1CCN(Cc2ccc(Nc3ncc(F)c(-c4cc(F)c5nc(C)n(C(C)C)c5c4)n3)nc2)CC1 + Cc1nc(NC(=O)N2CCCC2C(N)=O)sc1-c1ccnc(C(C)(C)C(F)(F)F)c1	361931-004-R-J1-PDC multicell spheroid viability	viability, T/C	39.7
